Measurement record for MERTK (Homo sapiens); quantity recorded: pIC50.
pIC50: −log10 of the molar value.

Record excerpt, results attached:
C[C@@H](CC(F)(F)F)Nc1ncc2c(O[C@H]3C[C@@](C)(O)C3)ncc([C@H]3CC[C@H](O)CC3)c2n1
≥ 7.00
CCCC(C)Nc1ncc2c(O[C@H]3C[C@H](O)C3)ncc([C@H]3CC[C@H](O)CC3)c2n1 (stereo partly drawn)
≥ 7.00
CCCC(C)Nc1ncc2c(NC3CCN(C(=O)C(F)(F)F)CC3)ncc([C@H]3CC[C@H](O)CC3)c2n1 (stereo partly drawn)
≥ 7.00
COC[C@H](C)Nc1ncc2c(OC3CCOCC3)ncc(C3CCC4(CC3)OCCO4)c2n1
≥ 7.00
COC[C@H](C)Nc1ncc2c(O[C@@H]3CCN(C)C(C)(C)C3)ncc([C@H]3CC[C@H](O)CC3)c2n1
≥ 7.00

// below: pIC50 requested for another compound
Consider the compound CN1CC(Nc2ncc3c(OC4CCOCC4)ncc([C@H]4CC[C@H](O)CC4)c3n2)CC1=O (stereo partly drawn) and give its measured pIC50.
5.00 to 6.00
